Hey, just so you know, these numbers are from patent US20200377590A1.

# systemUnderTest: T1, CD81 (UniProt P60033 1-236, limits assumed)
# T1 construct: whole, on cells; also called CD81 receptor
# T1 sequence (looked up): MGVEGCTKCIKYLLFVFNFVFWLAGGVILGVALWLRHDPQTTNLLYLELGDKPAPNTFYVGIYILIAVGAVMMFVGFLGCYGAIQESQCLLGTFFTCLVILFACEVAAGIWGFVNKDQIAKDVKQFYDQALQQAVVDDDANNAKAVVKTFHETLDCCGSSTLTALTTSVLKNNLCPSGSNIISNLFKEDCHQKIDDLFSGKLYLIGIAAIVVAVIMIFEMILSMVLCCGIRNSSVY
# assay: cell ELISA;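 note: antibody binding to HuH7 cells expressing CD81 versus a CD81-negative HuH7 control line, bound antibody detected by secondary reagent, absorbance at 450 nm with 620 nm reference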
Could you please report measured ELISA data for the items listed next?
Give only the figure.

Lookup: Reported ELISA data for CD81K13 HC 03-hVH_1_69 / LC 06-hVK_1_39 (antibody, V domains shown, human constant region) VH: QVQLVQSGAEVKKPGSSVKVSCKASGFNFKDSYLHWVRQAPGQGLEWMGRIDTGNGNVKYAQKFQGRVTITADESTSTAYMELSSLRSEDTAVYYCAPYGYGFHSWGQGTLVTVSS VL: DIQMTQSPSSLSASVGDRVTITCRASENIYRTLAWYQQKPGKAPKLLIYAATTLASGVPSRFSGSGSGTDFTLTISSLQPEDFGTYYCQHFWGTPWTFGQGTKVEIK : what is it?
Found: 0.484

Lookup: Ok, now CD81K13 HC 01-hVH_1_f / LC 07-hVK_1_27 (antibody, V domains shown, human constant region) VH: EVQLVQSGAEVKKPGATVKISCKVSGYTFTDSYMHWVQQAPGKGLEWMGRIDTGNGNVKFDPKFQGRVTITADTSTDTAYMELSSLRSEDTAVYYCAPYGYGFHSWGQGTLVTVSS VL: DIQMTQSPSSLSASVGDRVTITCRASENIYRTLAWYQQKPGKVPKLLIYAATTLASGVPSRFSGSGSGTDFTLTISSLQPEDVGTYYCQKFWGTPWTFGQGTKVEIK
Found: 0.086

Lookup: Ok, now CD81K13 HC 05-hVH_1_69 / LC CD81K13 (antibody, V domains shown, human constant region) VH: QVQLVQSGAEVKKPGSSVKVSCKASGFNFKDSYLHWVRQAPGQGLEWMGRIDTGNGNVKFDPKFQGRVTITTDESTSTAYMELSSLRSEDTAVYYCVPYGYGFHSWGQGTLVTVSS VL: DIQMTQSPASLSVSVGETVTITCRASENIYRTLAWYLQKQGKSPQLLVYGATTLADGVPSRFSGSGSGTQYYLKINSLQSEDFGTYHCQHFWGTPWTFGGGTKVEIK
Found: 0.94

Lookup: Ok, now CD81K13 HC 05-hVH_1_69 / LC 1c-hVK_3_15 (antibody, V domains shown, human constant region) VH: QVQLVQSGAEVKKPGSSVKVSCKASGFNFKDSYLHWVRQAPGQGLEWMGRIDTGNGNVKFDPKFQGRVTITTDESTSTAYMELSSLRSEDTAVYYCVPYGYGFHSWGQGTLVTVSS VL: EIVMTQSPATLSVSPGERATLSCRASENIYRTLAWYQQKPGQAPRLLIYGATTLADGIPARFSGSGSGTEFTLTISSLQSEDFGVYYCQHFWGTPWTFGQGTKVEIK
Found: 0.767

Lookup: Ok, now CD81K13 HC CD81K13 / LC 5b-hVK_1_39-GA (antibody, V domains shown, human constant region) VH: EVRLHQSAAQLVQPGASVRLSCTTSGFNFKDSYLHWVKQRPAQGLEWIGRIDTGNGNVKFDPKFQDKATITTDIPSMTAYLHLSNLTSEDTAVYYCVPYGYGFHSWGDGTTLTVSS VL: DIQMTQSPSSLSASVGDRVTITCRASENIYRTLAWYQQKPGKAPKLLIYGATTLADGVPSRFSGSGSGTDFTLTISSLQPEDFATYYCQHFWGTPWTFGQGTKVEIK
Found: 0.751

Lookup: Ok, now CD81K13 HC 05-hVH_1_69 / LC 1b-hVK_3_15 (antibody, V domains shown, human constant region) VH: QVQLVQSGAEVKKPGSSVKVSCKASGFNFKDSYLHWVRQAPGQGLEWMGRIDTGNGNVKFDPKFQGRVTITTDESTSTAYMELSSLRSEDTAVYYCVPYGYGFHSWGQGTLVTVSS VL: EIVMTQSPATLSVSPGERATLSCRASENIYRTLAWYQQKPGQAPRLLIYGATTLADGIPARFSGSGSGTEFTLTISSLQSEDFAVYYCQHFWGTPWTFGQGTKVEIK
Found: 0.624

Lookup: Ok, now CD81K13 HC 5b-hVH_1_69-GA / LC 5b-hVK_1_39 (antibody, V domains shown, human constant region) VH: QVQLVQSGAELVKPGSSVKVSCKASGFNFKDSYLHWVRQAPGQGLEWMGRIDTGNGNVKFDPKFQGRVTITTDESTSTAYMELSSLRSEDTAVYYCVPYGYGFHSWGQGTLVTVSS VL: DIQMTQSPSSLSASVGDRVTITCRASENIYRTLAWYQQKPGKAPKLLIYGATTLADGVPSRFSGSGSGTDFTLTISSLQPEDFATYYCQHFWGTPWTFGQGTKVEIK
Found: 0.737

Lookup: Ok, now CD81K13 HC 01-hVH_1_f / LC 1b-hVK_3_15 (antibody, V domains shown, human constant region) VH: EVQLVQSGAEVKKPGATVKISCKVSGYTFTDSYMHWVQQAPGKGLEWMGRIDTGNGNVKFDPKFQGRVTITADTSTDTAYMELSSLRSEDTAVYYCAPYGYGFHSWGQGTLVTVSS VL: EIVMTQSPATLSVSPGERATLSCRASENIYRTLAWYQQKPGQAPRLLIYGATTLADGIPARFSGSGSGTEFTLTISSLQSEDFAVYYCQHFWGTPWTFGQGTKVEIK
Found: 0.392

Lookup: Ok, now CD81K13 HC CD81K13 / LC 5b-hVK_1_39 (antibody, V domains shown, human constant region) VH: EVRLHQSAAQLVQPGASVRLSCTTSGFNFKDSYLHWVKQRPAQGLEWIGRIDTGNGNVKFDPKFQDKATITTDIPSMTAYLHLSNLTSEDTAVYYCVPYGYGFHSWGDGTTLTVSS VL: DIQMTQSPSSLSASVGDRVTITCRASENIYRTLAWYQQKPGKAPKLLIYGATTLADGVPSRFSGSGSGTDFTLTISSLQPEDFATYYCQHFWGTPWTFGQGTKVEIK
Found: 0.594

Lookup: Ok, now CD81K13 HC 05-hVH_1_69 / LC 01-hVK_3_15 (antibody, V domains shown, human constant region) VH: QVQLVQSGAEVKKPGSSVKVSCKASGFNFKDSYLHWVRQAPGQGLEWMGRIDTGNGNVKFDPKFQGRVTITTDESTSTAYMELSSLRSEDTAVYYCVPYGYGFHSWGQGTLVTVSS VL: EIVMTQSPATLSVSPGERATLSCRASENIYRTLAWYQQKPGQAPRLLIYGATTRATGIPARFSGSGSGTEFTLTISSLQSEDFGVYYCQHFWGTPWTFGQGTKVEIK
Found: 0.684
